- assay.details: Plasma concentration in vagotomized dog at 1 mg/kg, iv after 30 mins
- Assay type: ADME, organism-based, Canis lupus familiaris
- Design: dose 1 mg/kg, route intravenous
readout.name: concentration at 0.5 h
Remember to quote the unit after the number.

Incoming: Quick one: concentration at 0.5 h of CS(=O)(=O)c1ccc(F)cc1C(=O)N1CCC(N(C2CC2)S(=O)(=O)c2cccc(C(F)(F)F)c2)CC1 ?
Outgoing: 1960 nM

* * *

- target.entity: Voltage-dependent N-type calcium channel subunit alpha-1B (Homo sapiens, UniProt Q00975)
- Sequence (Q00975 whole entry, looked up): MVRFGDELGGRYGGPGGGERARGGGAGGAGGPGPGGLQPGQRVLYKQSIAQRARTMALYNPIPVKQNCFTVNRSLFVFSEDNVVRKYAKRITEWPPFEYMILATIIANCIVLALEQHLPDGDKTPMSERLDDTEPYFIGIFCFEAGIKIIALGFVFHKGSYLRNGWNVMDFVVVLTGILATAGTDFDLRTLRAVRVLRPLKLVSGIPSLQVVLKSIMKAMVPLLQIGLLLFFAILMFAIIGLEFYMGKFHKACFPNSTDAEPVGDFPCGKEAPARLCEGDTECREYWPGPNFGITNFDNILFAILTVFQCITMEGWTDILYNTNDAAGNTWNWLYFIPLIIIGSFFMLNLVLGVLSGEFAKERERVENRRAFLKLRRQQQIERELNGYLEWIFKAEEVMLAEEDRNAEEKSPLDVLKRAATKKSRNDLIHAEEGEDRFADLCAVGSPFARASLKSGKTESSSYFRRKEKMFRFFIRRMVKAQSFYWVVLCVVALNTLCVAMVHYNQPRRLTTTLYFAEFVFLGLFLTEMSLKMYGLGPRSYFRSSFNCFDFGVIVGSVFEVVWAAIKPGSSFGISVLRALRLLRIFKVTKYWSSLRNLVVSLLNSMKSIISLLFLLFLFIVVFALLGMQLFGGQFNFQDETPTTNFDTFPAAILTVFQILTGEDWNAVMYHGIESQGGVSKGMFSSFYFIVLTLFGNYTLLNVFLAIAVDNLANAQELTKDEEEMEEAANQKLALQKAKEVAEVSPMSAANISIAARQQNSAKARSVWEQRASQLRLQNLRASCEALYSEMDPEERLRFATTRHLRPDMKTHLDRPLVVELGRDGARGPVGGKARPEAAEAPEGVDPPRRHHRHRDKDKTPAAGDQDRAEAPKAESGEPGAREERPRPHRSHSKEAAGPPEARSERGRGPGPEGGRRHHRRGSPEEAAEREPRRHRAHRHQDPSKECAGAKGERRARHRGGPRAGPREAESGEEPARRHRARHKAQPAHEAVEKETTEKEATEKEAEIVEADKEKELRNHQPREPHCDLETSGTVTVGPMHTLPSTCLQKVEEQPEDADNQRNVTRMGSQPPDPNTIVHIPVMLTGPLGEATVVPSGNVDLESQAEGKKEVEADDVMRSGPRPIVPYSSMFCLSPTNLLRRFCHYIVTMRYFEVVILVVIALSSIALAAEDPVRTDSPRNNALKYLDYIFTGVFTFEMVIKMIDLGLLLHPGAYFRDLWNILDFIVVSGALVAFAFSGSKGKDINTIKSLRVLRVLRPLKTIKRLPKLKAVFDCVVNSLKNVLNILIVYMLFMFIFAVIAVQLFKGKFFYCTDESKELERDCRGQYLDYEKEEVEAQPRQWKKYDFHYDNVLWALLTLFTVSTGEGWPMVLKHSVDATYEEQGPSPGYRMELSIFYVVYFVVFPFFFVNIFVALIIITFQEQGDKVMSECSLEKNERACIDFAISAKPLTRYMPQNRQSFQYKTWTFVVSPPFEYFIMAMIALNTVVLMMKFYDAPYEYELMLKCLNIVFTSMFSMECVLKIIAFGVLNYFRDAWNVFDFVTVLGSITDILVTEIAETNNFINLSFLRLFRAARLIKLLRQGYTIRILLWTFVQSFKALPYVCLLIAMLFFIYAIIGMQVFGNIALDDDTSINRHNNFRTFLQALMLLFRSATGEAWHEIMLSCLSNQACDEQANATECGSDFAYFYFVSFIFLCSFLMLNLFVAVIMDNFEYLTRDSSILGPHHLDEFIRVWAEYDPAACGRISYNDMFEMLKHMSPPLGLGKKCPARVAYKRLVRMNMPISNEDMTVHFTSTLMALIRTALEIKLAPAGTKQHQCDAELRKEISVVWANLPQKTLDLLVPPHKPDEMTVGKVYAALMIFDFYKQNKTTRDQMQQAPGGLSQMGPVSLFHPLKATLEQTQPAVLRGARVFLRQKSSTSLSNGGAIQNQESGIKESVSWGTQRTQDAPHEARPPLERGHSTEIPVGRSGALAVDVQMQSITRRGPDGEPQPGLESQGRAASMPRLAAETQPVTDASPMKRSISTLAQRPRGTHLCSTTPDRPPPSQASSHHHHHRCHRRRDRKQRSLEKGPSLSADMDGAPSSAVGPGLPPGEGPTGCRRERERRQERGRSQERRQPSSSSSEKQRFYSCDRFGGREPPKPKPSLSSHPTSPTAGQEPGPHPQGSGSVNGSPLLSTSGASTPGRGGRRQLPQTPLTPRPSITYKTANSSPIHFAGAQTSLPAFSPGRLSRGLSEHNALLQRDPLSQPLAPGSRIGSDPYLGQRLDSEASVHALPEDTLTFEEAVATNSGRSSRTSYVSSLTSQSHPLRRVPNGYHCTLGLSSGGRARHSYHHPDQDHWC
- assay.details: Inhibition of Cav2.2 expressed HEK293 cells assessed as inhibition of calcium flux at 1 uM by FLIPR assay
- Assay type: cell-based
Met means recorded inhibition is 20% or above; Not met means it is below 20%.

Incoming: Item CS(=O)(=O)c1ccc(F)cc1C(=O)N1CCC(N(C2CC2)S(=O)(=O)c2ccc(OC(F)(F)F)cc2)CC1 with inhibition of 20% or above?
Outgoing: Not met

Incoming: Here is the next compound: O=C(c1ccccc1)N1CCC(N(C2CC2)S(=O)(=O)c2cccc(C(F)(F)F)c2)CC1
Outgoing: Met

Incoming: Please give the result for NC(=O)c1ccccc1C(=O)N1CCC(N(C2CC2)S(=O)(=O)c2cccc(C(F)(F)F)c2)CC1 too.
Outgoing: Not met

Incoming: Queued: CS(=O)(=O)c1ccc(F)cc1C(=O)N1CCC(N(C2CC2)S(=O)(=O)c2ccc(C(F)(F)F)cc2)CC1
Outgoing: Not met

Incoming: Query NC(=O)c1cccc(C(=O)N2CCC(N(C3CC3)S(=O)(=O)c3cccc(C(F)(F)F)c3)CC2)c1 next
Outgoing: Not met

Incoming: Ok, now CS(=O)(=O)c1cccc(C(=O)N2CCC(N(C3CC3)S(=O)(=O)c3cccc(C(F)(F)F)c3)CC2)c1
Outgoing: Not met

Incoming: Follow-up item: NC(=O)c1ccc(C(=O)N2CCC(N(C3CC3)S(=O)(=O)c3cccc(C(F)(F)F)c3)CC2)cc1
Outgoing: Not met

Incoming: Also need CS(=O)(=O)c1ccc(C(=O)N2CCC(N(C3CC3)S(=O)(=O)c3cccc(C(F)(F)F)c3)CC2)cc1 , thanks.
Outgoing: Met

Incoming: Record: CS(=O)(=O)c1cccc(S(=O)(=O)N(C2CC2)C2CCN(C(=O)c3cc(F)ccc3S(C)(=O)=O)CC2)c1
Outgoing: Not met

Incoming: Next compound up: CS(=O)(=O)c1ccc(F)cc1C(=O)N1CCC(N(C2CC2)S(=O)(=O)c2ccccc2C(F)(F)F)CC1
Outgoing: Not met
